Measurement record for Human MDM2 (HDM2) 1-116 (Homo sapiens); quantity recorded: IC50.
Where a SMILES comes first, the peptide text is derived from it. [ ]: non-standard residue; d: D form. The star is where a group is joined. Ala(thiazol-5-yl) = N[C@@H](Cc1cncs1)C(=O)O; Ala(4-thiazolyl) = N[C@@H](Cc1cscn1)C(=O)O; Phe(4-Cl) = N[C@@H](Cc1ccc(Cl)cc1)C(=O)O; Phe(4-F) = N[C@@H](Cc1ccc(F)cc1)C(=O)O; NMeF = CN[C@@H](Cc1ccccc1)C(=O)O; NMeNva = CCC[C@H](NC)C(=O)O; NMeV = CN[C@H](C(=O)O)C(C)C; Nicotinoyl = O=C(c1cccnc1)*; hSer = N[C@@H](CCO)C(=O)O; NMeA = CN[C@@H](C)C(=O)O; dNMeA = CN[C@H](C)C(=O)O; Nme = COCCNCC(=O)O

molecule	IC50
CCC[C@H]1C(=O)N[C@@H](Cc2ccc(F)cc2)C(=O)N(C)[C@@H](C(C)C)C(=O)N[C@@H](Cc2ccc(Cl)cc2)C(=O)N(C)[C@@H](Cc2ccccc2)C(=O)N2CCC[C@@H]2C(=O)N[C@@H](CCOC)C(=O)N(C)[C@@H](C)C(=O)N[C@@H](Cc2cncs2)C(=O)N(C)[C@H](C)C(=O)N1C [compound 28] (cyclo([NMeA][Ala(thiazol-5-yl)][dNMeA][NMeNva][Phe(4-F)][NMeV][Phe(4-Cl)][NMeF][dP][hSer](Me)))	< 25 nM
COCC[C@@H]1NC(=O)[C@H]2CCCN2C(=O)[C@H](Cc2ccccc2)N(C)C(=O)[C@H](Cc2ccc(Cl)cc2)NC(=O)[C@H]([C@@H](C)OC(=O)c2cccnc2)NC(=O)[C@H](Cc2ccc(F)cc2)NC(=O)CN(CCOC)C(=O)[C@@H](C)N(C)C(=O)[C@H](Cc2cscn2)NC(=O)[C@H](C)N(C)C1=O [compound 3] (cyclo([Ala(4-thiazolyl)][dNMeA][Nme][Phe(4-F)]T(Nicotinoyl)[Phe(4-Cl)][NMeF][dP][hSer](Me)[NMeA]))	< 25 nM

Moving on to the next molecule.
Request the reported IC50 associated with COCC[C@@H]1NC(=O)[C@H]2CCCN2C(=O)[C@H](Cc2ccccc2)N(C)C(=O)[C@H](Cc2ccc(Cl)cc2)NC(=O)[C@H]([C@@H](C)OC)NC(=O)[C@H](Cc2ccc(F)cc2)NC(=O)CN(CCOC)C(=O)[C@@H](C)N(C)C(=O)[C@H](Cc2cscn2)NC(=O)[C@H](C)N(C)C1=O [compound 12] (cyclo([Ala(4-thiazolyl)][dNMeA][Nme][Phe(4-F)]T(Me)[Phe(4-Cl)][NMeF][dP][hSer](Me)[NMeA]))
< 25 nM

* * *

Molecular target: Human MDM2 (HDM2) 1-116 (Homo sapiens, UniProt Q00987)
Sequence (Q00987 1-116): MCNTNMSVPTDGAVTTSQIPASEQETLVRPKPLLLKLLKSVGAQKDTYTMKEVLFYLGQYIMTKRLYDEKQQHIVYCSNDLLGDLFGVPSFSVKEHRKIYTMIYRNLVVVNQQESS
pIC50: −log10 of the molar value. Where a SMILES comes first, the peptide text is derived from it. [ ]: non-standard residue; d: D form. The star is where a group is joined. Ala(4-thiazolyl) = N[C@@H](Cc1cscn1)C(=O)O; NMeAla(cPent) = CN[C@@H](CC1CCCC1)C(=O)O; Phe(4-Cl) = N[C@@H](Cc1ccc(Cl)cc1)C(=O)O; Phe(4-F) = N[C@@H](Cc1ccc(F)cc1)C(=O)O; Ala(cPent) = N[C@@H](CC1CCCC1)C(=O)O; NMeF = CN[C@@H](Cc1ccccc1)C(=O)O; Cba = N[C@@H](CC1CCC1)C(=O)O; hSer = N[C@@H](CCO)C(=O)O; NMeA = CN[C@@H](C)C(=O)O; dNMeA = CN[C@H](C)C(=O)O; Nme = COCCNCC(=O)O; X1 = O=C(C(F)F)*
Each entry below carries its reported pIC50.

compound	result
COCC[C@@H]1NC(=O)[C@H]2CCCN2C(=O)[C@H](Cc2ccccc2)N(C)C(=O)[C@H](Cc2ccc(Cl)cc2)NC(=O)[C@H](CC2CCCC2)NC(=O)[C@H](Cc2ccc(F)cc2)NC(=O)CN(CCOC)C(=O)[C@@H](C)N(C)C(=O)[C@H](C)N(C)C1=O [compound 15] (cyclo([Ala(cPent)][Phe(4-Cl)][NMeF][dP][hSer](Me)[NMeA][dNMeA][Nme][Phe(4-F)]))	> 7.60
COCC[C@@H]1NC(=O)[C@H]2CCCN2C(=O)[C@H](Cc2ccccc2)N(C)C(=O)[C@H](Cc2ccc(Cl)cc2)NC(=O)[C@H](CC2CCC2)NC(=O)[C@H](Cc2ccc(F)cc2)NC(=O)CN(CCOC)C(=O)[C@@H](C)N(C)C(=O)[C@H](C)N(C)C1=O [compound 14] (cyclo([Cba][Phe(4-Cl)][NMeF][dP][hSer](Me)[NMeA][dNMeA][Nme][Phe(4-F)]))	> 7.60
COCC[C@@H]1NC(=O)[C@H]2CCCN2C(=O)[C@H](Cc2ccccc2)N(C)C(=O)[C@H](Cc2ccc(Cl)cc2)NC(=O)[C@H]([C@@H](C)OC(=O)C(F)F)NC(=O)[C@H](Cc2ccc(F)cc2)NC(=O)CN(CCOC)C(=O)[C@@H](C)N(C)C(=O)[C@H](Cc2cscn2)NC(=O)[C@H](C)N(C)C1=O [compound 7] (cyclo([Ala(4-thiazolyl)][dNMeA][Nme][Phe(4-F)]T(X1)[Phe(4-Cl)][NMeF][dP][hSer](Me)[NMeA]))	7.30 to 7.60

Moving on to the next compound.
Form field - read-out: pIC50; system: Human MDM2 (HDM2) 1-116 (Homo sapiens, UniProt Q00987); submitted item: COCC[C@@H]1NC(=O)[C@H]2CCCN2C(=O)[C@H](Cc2ccccc2)N(C)C(=O)[C@H](Cc2ccc(Cl)cc2)NC(=O)[C@H](CC2CCCC2)N(C)C(=O)[C@H](Cc2ccc(F)cc2)NC(=O)CN(CCOC)C(=O)[C@@H](C)N(C)C(=O)[C@H](Cc2cscn2)NC(=O)[C@H](C)N(C)C1=O [compound 10] (cyclo([Ala(4-thiazolyl)][dNMeA][Nme][Phe(4-F)][NMeAla(cPent)][Phe(4-Cl)][NMeF][dP][hSer](Me)[NMeA]))
> 7.60
